Molecular target: T1, mfPRLR.mmh (soluble monomeric macaca fascicularis PRLR) (macaca fascicularis)
T1 construct: soluble monomeric PRLR protein; also called macaca fascicularis (mf) PRLR.mmh; monkey PRLR
T1 chain: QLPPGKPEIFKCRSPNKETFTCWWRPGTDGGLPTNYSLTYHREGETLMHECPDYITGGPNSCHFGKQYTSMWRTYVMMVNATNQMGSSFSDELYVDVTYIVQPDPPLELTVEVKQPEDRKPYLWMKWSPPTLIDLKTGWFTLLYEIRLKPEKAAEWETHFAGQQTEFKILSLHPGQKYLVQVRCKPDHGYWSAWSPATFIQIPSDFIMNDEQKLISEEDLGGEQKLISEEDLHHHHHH
Test: SPR (Biacore), antibody capture, 37 C
Field: label. Allowed values: TRUE (kon < 600000 M⁻¹ s⁻¹) or FALSE (kon >= 600000 M⁻¹ s⁻¹).

{"binder": "H1H6792P (antibody, human IgG1, V domains shown, human IgG1 Fc (H1H)) VH: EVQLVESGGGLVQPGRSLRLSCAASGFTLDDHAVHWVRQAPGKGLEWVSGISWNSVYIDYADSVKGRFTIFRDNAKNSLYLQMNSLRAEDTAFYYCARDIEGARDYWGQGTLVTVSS VL: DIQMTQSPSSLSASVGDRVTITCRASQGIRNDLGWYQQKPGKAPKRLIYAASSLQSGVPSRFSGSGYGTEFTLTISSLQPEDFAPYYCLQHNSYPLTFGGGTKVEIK", "labelValue": "TRUE"}
{"binder": "H1H6967N (antibody, human IgG1, V domains shown, also called H2M6967N) VH: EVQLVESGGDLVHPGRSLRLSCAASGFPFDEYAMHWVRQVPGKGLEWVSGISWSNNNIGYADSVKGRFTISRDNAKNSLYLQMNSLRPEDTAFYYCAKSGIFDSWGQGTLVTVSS VL: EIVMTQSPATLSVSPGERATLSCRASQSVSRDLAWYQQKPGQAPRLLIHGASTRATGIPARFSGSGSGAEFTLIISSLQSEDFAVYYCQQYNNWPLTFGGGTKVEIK", "labelValue": "TRUE"}
{"binder": "H1H6797P (antibody, human IgG1, V domains shown, human IgG1 Fc (H1H)) VH: EVQLVESGGGLVQPGGSLRLSCIVSGFTFSGSWMSWVRQLPGKGLEWVANIKEDGSDSYYVDSVEGRFTISRDNAKSSLYLQMNSLRVDDTAVYFCARARTVPLHYWGQGTLVTVSS VL: DIQMTQSPSTLSASVGDRVTITCRASQSINIWLAWYQQKPGKAPKLLIYRASYLESGVPSSFAGGGSGTEFTLTISSLQPDDFGTYYCQHYNSYPFTFGQGTKLEIK", "labelValue": "FALSE"}
{"binder": "H1H6958N2 (antibody, human IgG1, V domains shown, also called H2M6958N2) VH: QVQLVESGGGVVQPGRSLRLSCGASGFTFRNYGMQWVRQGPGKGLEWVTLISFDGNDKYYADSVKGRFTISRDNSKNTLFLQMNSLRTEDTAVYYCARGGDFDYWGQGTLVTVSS VL: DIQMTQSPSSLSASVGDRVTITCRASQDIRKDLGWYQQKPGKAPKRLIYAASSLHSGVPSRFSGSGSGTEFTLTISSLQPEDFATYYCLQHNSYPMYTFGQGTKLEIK", "labelValue": "TRUE"}
